Target: HLA-A*26:03
Assay: IEDB peptide-MHC binding, purified MHC/direct/fluorescence; filed as Kd, often an IC50 or EC50 that approximates it; bounds were set here for any values at or beyond the usual limits of such assays
Details: source organism: Giardia lamblia ATCC 50803
READOUT_LABEL: Kd

## Input Kd lookup needed for "RTMPLSRFT" , thanks.
## Output ≥ 20 µM

----------
Target: HLA-B*35:01
Test: IEDB peptide-MHC binding, purified MHC/competitive/fluorescence; filed as Kd, often an IC50 or EC50 that approximates it; bounds were set here for any values at or beyond the usual limits of such assays
Settings: source organism: Escherichia coli str. K-12 substr. MG1655
READOUT_LABEL: pKd
As a rule, pKd stands for the negative log10 of the concentration, concentration in M.

## Input pKd lookup needed for "RINEGWPAY" , thanks.
## Output 7.23

----------
Biological target: HLA-B*07:02
Test: IEDB peptide-MHC binding, purified MHC/competitive/fluorescence; filed as Kd, often an IC50 or EC50 that approximates it; bounds were set here for any values at or beyond the usual limits of such assays
Settings: source organism: Vaccinia virus WR
READOUT_LABEL: pKd
As a rule, pKd stands for the negative log10 of the concentration, concentration in M.

## Input Record "YHRPLTGYM" : what is its pKd with HLA-B*07:02?
## Output 6.52

----------
Target: HLA-B*57:01
Experiment: IEDB peptide-MHC binding, purified MHC/direct/fluorescence; filed as Kd, often an IC50 or EC50 that approximates it; bounds were set here for any values at or beyond the usual limits of such assays
Settings: source organism: Vibrio vulnificus YJ016
// values below are reported Kd

INSERT INTO assay_data (construct_sequence, readout_label, result) VALUES
  ('EPADHLAIM', 'Kd', '≥ 20 µM'),
  ('WMSPTYQSW', 'Kd', '0.0624 µM');

Okay, next one:
## Input Kd lookup needed for "FPLWNTEKI" , thanks.
## Output ≥ 20 µM

----------
Biological target: HLA-A*29:02
Test: IEDB peptide-MHC binding, purified MHC/competitive/radioactivity; filed as Kd, often an IC50 or EC50 that approximates it; bounds were set here for any values at or beyond the usual limits of such assays
Conditions: source organism: SARS coronavirus Tor2
// values below are reported pKd
As a rule, pKd stands for the negative log10 of the concentration, concentration in M.

Here are 5 sequences together with their reported answers.
INSERT INTO measurements (construct_sequence, measured_number) VALUES
  ('FIAQSKGLY', 8.31),
  ('ETLLPLTQY', 6.58),
  ('ISAGFSLWIY', 8.64),
  ('PTLVPQEHY', 4.96),
  ('RMYIFFASF', 5.68);

## Input pKd lookup needed for "SWFITQRNF" , thanks.
## Output 7.79

## Input pKd lookup needed for "MSFLEKDAPY" , thanks.
## Output 6.65

## Input pKd lookup needed for "NSGPDDQIGY" , thanks.
## Output 5.13

## Input pKd lookup needed for "DYLVSTQEF" , thanks.
## Output 6.59

## Input pKd lookup needed for "ACADGTRHTY" , thanks.
## Output 5.21

## Input pKd lookup needed for "QYIKWPWYVW" , thanks.
## Output 5.41

## Input pKd lookup needed for "TYTEIEPKL" , thanks.
## Output 4.91

## Input pKd lookup needed for "TTTGIGYQPY" , thanks.
## Output 8.06

## Input pKd lookup needed for "YSELRPDTRY" , thanks.
## Output 6.85

## Input pKd lookup needed for "NYFKKVDGI" , thanks.
## Output 5.60
